For each record, write down the corresponding Ki.
# assay target: hNK1 receptors (Homo sapiens, UniProt P25103)
# Sequence (P25103 whole entry): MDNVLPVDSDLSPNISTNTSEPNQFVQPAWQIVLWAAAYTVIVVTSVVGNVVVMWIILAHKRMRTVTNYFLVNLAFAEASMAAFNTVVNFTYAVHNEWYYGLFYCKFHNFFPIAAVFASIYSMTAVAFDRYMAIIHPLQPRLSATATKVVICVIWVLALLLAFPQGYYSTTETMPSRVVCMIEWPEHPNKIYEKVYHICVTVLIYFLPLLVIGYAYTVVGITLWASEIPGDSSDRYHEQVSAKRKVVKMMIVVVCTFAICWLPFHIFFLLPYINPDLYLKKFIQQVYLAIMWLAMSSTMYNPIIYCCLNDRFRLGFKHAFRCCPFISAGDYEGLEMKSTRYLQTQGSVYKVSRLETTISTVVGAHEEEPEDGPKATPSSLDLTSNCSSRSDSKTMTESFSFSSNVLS
# assay procedure: [3H]Substance-P competition binding assay, hNK1-CHO membranes
Answer in nM, number only, no unit symbol.

// compound Cc1cc(O)cc(C)c1C[C@H](N)C(=O)N[C@H](CCCNC(=N)N)C(=O)N[C@H]1Cc2ccccc2CN(CC(=O)N(Cc2ccccc2)C2CC2)C1=O , assay hNK1 receptors (Homo sapiens, UniProt P25103), Ki value: 95

// compound Cc1cc(O)cc(C)c1C[C@H](N)C(=O)N[C@H](CCCNC(=N)N)C(=O)N[C@H]1Cc2ccccc2CN(CC(=O)N(C)Cc2ccc3ccccc3c2)C1=O , assay hNK1 receptors (Homo sapiens, UniProt P25103), Ki value: 709

// compound Cc1cc(O)cc(C)c1C[C@H](N)C(=O)N[C@H](CCCNC(=N)N)C(=O)N[C@H]1Cc2ccccc2CN(CCC(=O)N(Cc2ccccc2)C2CC2)C1=O , assay hNK1 receptors (Homo sapiens, UniProt P25103), Ki value: 520

* * *

For each record, write down the corresponding IC50.

// compound Cc1cc(O)cc(C)c1C[C@H](N)C(=O)N[C@H](CCCNC(=N)N)C(=O)N[C@H]1Cc2ccccc2CN(CCC(=O)N(C)Cc2ccc3ccccc3c2)C1=O , assay DOP receptor (Mus musculus, UniProt P32300), IC50 value: 4 nM

// compound Cc1cc(O)cc(C)c1C[C@H](N)C(=O)N[C@H](CCCNC(=N)N)C(=O)N[C@H]1Cc2ccccc2CN(CC(=O)N2Cc3ccccc3C2)C1=O , assay DOP receptor (Mus musculus, UniProt P32300), IC50 value: 8 nM

// compound Cc1cc(O)cc(C)c1C[C@H](N)C(=O)N[C@H](CCCNC(=N)N)C(=O)N[C@H]1Cc2ccccc2CN(CC(=O)N(Cc2ccccc2)C2CC2)C1=O , assay DOP receptor (Mus musculus, UniProt P32300), IC50 value: 11.2 nM

* * *

measured attribute: Ki (µM)
Answer in µM, number only, no unit symbol.

// compound Cc1cc(O)cc(C)c1C[C@H](N)C(=O)N[C@H](CCCNC(=N)N)C(=O)N[C@H]1Cc2ccccc2CN(CC(=O)N2Cc3ccccc3C2)C1=O , assay hNK1 receptors (Homo sapiens, UniProt P25103), Ki value: 3.5

// compound Cc1cc(O)cc(C)c1C[C@H](N)C(=O)N[C@H](CCCNC(=N)N)C(=O)N[C@H]1Cc2ccccc2CN(CCC(=O)N(Cc2cc(C(F)(F)F)cc(C(F)(F)F)c2)C2CC2)C1=O , assay hNK1 receptors (Homo sapiens, UniProt P25103), Ki value: 0.735

// compound Cc1cc(O)cc(C)c1C[C@H](N)C(=O)N[C@H](CCCNC(=N)N)C(=O)N[C@H]1Cc2ccccc2CN(CCC(=O)N(C)Cc2ccc3ccccc3c2)C1=O , assay hNK1 receptors (Homo sapiens, UniProt P25103), Ki value: 0.612

// compound COc1ccccc1CN(C)C(=O)CN1Cc2ccccc2C[C@H](NC(=O)[C@@H](CCCNC(=N)N)NC(=O)[C@@H](N)Cc2c(C)cc(O)cc2C)C1=O , assay hNK1 receptors (Homo sapiens, UniProt P25103), Ki value: 0.501

* * *

measured attribute: IC50 (nM)
Answer in nM, number only, no unit symbol.

// compound Cc1cc(O)cc(C)c1C[C@H](N)C(=O)N[C@H](CCCNC(=N)N)C(=O)N[C@H]1Cc2ccccc2CN(CCC(=O)N(C)Cc2ccc3ccccc3c2)C1=O [Compound 12] , assay MOP receptor (Cavia porcellus, UniProt A0ACM8Q262), IC50 value: 9

// compound Cc1cc(O)cc(C)c1C[C@H](N)C(=O)N[C@H](CCCNC(=N)N)C(=O)N[C@H]1Cc2ccccc2CN(CCC(=O)N(Cc2cc(C(F)(F)F)cc(C(F)(F)F)c2)C2CC2)C1=O [Compound 6] , assay MOP receptor (Cavia porcellus, UniProt A0ACM8Q262), IC50 value: 18

// compound COc1ccccc1CN(C)C(=O)CN1Cc2ccccc2C[C@H](NC(=O)[C@@H](CCCNC(=N)N)NC(=O)[C@@H](N)Cc2c(C)cc(O)cc2C)C1=O [Compound 11, H-Dmt-D-Arg-Aba-Gly-NMe-2′-OMe-Bn] , assay MOP receptor (Cavia porcellus, UniProt A0ACM8Q262), IC50 value: 5

// compound Cc1cc(O)cc(C)c1C[C@H](N)C(=O)N[C@H](CCCNC(=N)N)C(=O)N[C@H]1Cc2ccccc2CN(CC(=O)N2Cc3ccccc3C2)C1=O [Compound 10, H-Dmt-D-Arg-Aba-Gly-isoindoline] , assay MOP receptor (Cavia porcellus, UniProt A0ACM8Q262), IC50 value: 7.3

// compound Cc1cc(O)cc(C)c1C[C@H](N)C(=O)N[C@H](CCCNC(=N)N)C(=O)N[C@H]1Cc2ccccc2CN(CCC(=O)N(Cc2ccccc2)C2CC2)C1=O [Compound 7, H-Dmt-D-Arg-Aba-β-Ala-NcPr-Bn] , assay MOP receptor (Cavia porcellus, UniProt A0ACM8Q262), IC50 value: 19
